Target: AMPA receptor
Assay: In vitro receptor binding assay ([^3H]perampanel, Ki value measurement)
Settings: rat forebrain membranes, 90 min at 4° C., Scatchard analysis
Description: Homogenate of forebrains of rats (Sprague-Dawley) was prepared in ice-cold solution containing 0.32 M sucrose and 0.1 mM EGTA (pH 7.4). Homogenate was centrifuged in 1000 g for 10 min and supernatant was collected. […] Receptor solution was re-suspended in binding buffer (50 mM Tris-HCl, pH 7.4) to a final concentration of 0.24 mg tissue eq./assay. […] Radioactivity was counted (1 min) in a liquid scintillation counter (LSC-6100, Hitachi Aloka Medical, Ltd.). […]
endpoint-label: Ki

> print(dat)
                                   compound  experimental.system  observed.measurement
1  CNc1cccc(-n2cc(-c3ncccn3)cc(-c3ccccc3C#N)c2=O)c1 [Reference Example 9]        AMPA receptor                 10 nM
2  N#Cc1ccccc1-c1cc(-c2ncccn2)cn(-c2cccc(F)c2)c1=O [Reference Example 15]        AMPA receptor                 20 nM
3  O=c1c(-c2ccccc2F)cc(-c2ncccn2)cn1-c1cccc(CF)c1 [Reference Example 22]        AMPA receptor                 22 nM
4  N#Cc1ccccc1-c1cc(-c2ncccn2)cn(-c2ccc(F)c(N)c2)c1=O [Reference Example 19]        AMPA receptor                  5 nM

Sourced from patent US20160045625A1
